Measurement Type: melting point (°C)

I. Cc1nc2ccc(N3C[C@H](C(N)c4nccs4)OC3=O)cc2s1 (stereo not given in full)
II. CCC(=O)OCC(=O)C1(OC(=O)CC)CCC2C3CC(C)C4=CC(=O)C=CC4(C)C3C(O)CC21C (stereo not given)
Between I and II , whose measured melting point reads higher? Provide the label of your selected option as the answer.
I
(I: 207 °C, II: 126 °C)

====

Measurement Type: melting point (°C)

* Fc1ccc(F)c(CN2CCNc3ncc(-c4ccnc(N5CCOCC5)c4)cc32)c1Cl | 157
* CCC(C)C(=O)NC1CCC(CCN2CCN(c3nccc4c3OCC4)CC2)CC1 (racemic) | 196
